FYI, the data here is from patent US20260206761A1.

This section presents compounds with their documented mortality at 500 g/ha values.
# Test system: green peach aphid (Myzus persicae)
# Test Details: Myzus persicae spray test
# Assay type: in vivo
# Condition Details: 120 h, application rate 500 g/ha, after 5 days
Please respond with the number in % and leave the unit unwritten.

Task item: Please look at this compound and report its mortality at 500 g/ha: C[C@H](NC(=O)c1cc(Cl)cc(S(C)(=O)=O)c1)c1nc(C2CC2)nn1-c1ncc(Cl)cn1 [I-61]
Reply: 90

Task item: Please look at this compound and report its mortality at 500 g/ha: C[C@H](NC(=O)c1cc(C#N)cc(S(C)(=O)=O)c1)c1ncnn1-c1ccc(Cl)cn1 [II-29]
Reply: 100

Task item: Please look at this compound and report its mortality at 500 g/ha: C[C@H](NC(=O)c1cc(Cl)cc(S(=O)(=O)C(F)F)c1)c1ncnn1-c1ncccn1 [II-34]
Reply: 100

====

# Tested on: Rhipicephalus microplus larvae (strain Parkhurst, resistant against synthetic pyrethroids)
# Test Details: Rhipicephalus (Boophilus) microplus in-vitro contact test, larval cattle tick
# Assay type: in vivo
# Condition Details: application rate 5 pg/cm^2 (=500 g/ha), after 48 hours, read-out: activity (efficacy: larvae dead or moribund)
Measured Parameter: pest or weed control at 500 g/ha (%)
Please respond with the number in % and leave the unit unwritten.

These recorded examples may help you get a feel for the data.
C[C@H](NC(=O)c1cc(C2CC2)cc(S(=O)(=O)C2CC2)c1)c1nc(C2CC2)nn1-c1ccc(C#N)cn1 [I-56]; 100
C[C@H](NC(=O)c1cc(OC(F)F)cc(C2CC2)c1)c1ncnn1-c1ccc(C#N)cn1 [II-62]; 100

Task item: Determine reported pest or weed control at 500 g/ha for C[C@H](NC(=O)c1cc(Cl)cc(S(=O)(=O)C(F)(F)F)c1)c1ncnn1-c1ncc(OC(F)F)cn1 [II-43] ; test system: Rhipicephalus microplus larvae (strain Parkhurst, resistant against synthetic pyrethroids).
Reply: 100

Task item: Determine reported pest or weed control at 500 g/ha for C[C@H](NC(=O)c1cc(Cl)cc([S+]([O-])C(F)F)c1)c1ncnn1-c1ccc(C#N)cn1 (some centres unmarked) [II-18] ; test system: Rhipicephalus microplus larvae (strain Parkhurst, resistant against synthetic pyrethroids).
Reply: 100

Task item: Determine reported pest or weed control at 500 g/ha for CCS(=O)(=O)c1cc(C(=O)N[C@@H](C)c2ncnn2-c2ccc(Cl)cn2)cc(C(F)(F)F)c1 [II-45] ; test system: Rhipicephalus microplus larvae (strain Parkhurst, resistant against synthetic pyrethroids).
Reply: 100

Task item: Determine reported pest or weed control at 500 g/ha for C[C@H](NC(=O)c1cc(I)cc(C2CC2)c1)c1ncnn1-c1ccc(C#N)cn1 [II-58] ; test system: Rhipicephalus microplus larvae (strain Parkhurst, resistant against synthetic pyrethroids).
Reply: 100

Task item: Determine reported pest or weed control at 500 g/ha for C[C@H](NC(=O)c1cc(Cl)cc(C2(C#N)CC2)c1)c1ncnn1-c1ncc(Cl)cn1 [II-55] ; test system: Rhipicephalus microplus larvae (strain Parkhurst, resistant against synthetic pyrethroids).
Reply: 100

Task item: Determine reported pest or weed control at 500 g/ha for C[C@H](NC(=O)c1cc(Cl)cc(S(C)(=O)=O)c1)c1nc(C2CC2)nn1-c1ncc(Cl)cn1 [I-61] ; test system: Rhipicephalus microplus larvae (strain Parkhurst, resistant against synthetic pyrethroids).
Reply: 100

Task item: Determine reported pest or weed control at 500 g/ha for CCS(=O)(=O)c1cc(Cl)cc(C(=O)N[C@@H](C)c2nc(C(C)C)nn2-c2ccc(C#N)cn2)c1 [I-17] ; test system: Rhipicephalus microplus larvae (strain Parkhurst, resistant against synthetic pyrethroids).
Reply: 80

Task item: Determine reported pest or weed control at 500 g/ha for Cc1nc([C@H](C)NC(=O)c2cc(C(F)(F)F)cc(C3(C#N)CC3)c2)n(-c2ccc(C#N)cn2)n1 [II-49] ; test system: Rhipicephalus microplus larvae (strain Parkhurst, resistant against synthetic pyrethroids).
Reply: 100

Task item: Determine reported pest or weed control at 500 g/ha for C[C@H](NC(=O)c1cc(C#N)cc(C2CC2)c1)c1ncnn1-c1ccc(C#N)cn1 [II-53] ; test system: Rhipicephalus microplus larvae (strain Parkhurst, resistant against synthetic pyrethroids).
Reply: 80

Task item: Determine reported pest or weed control at 500 g/ha for C[C@H](NC(=O)c1cc(F)cc(S(C)(=O)=O)c1)c1nc(C2CC2)nn1-c1ccc(Cl)cn1 [I-60] ; test system: Rhipicephalus microplus larvae (strain Parkhurst, resistant against synthetic pyrethroids).
Reply: 100

Task item: Determine reported pest or weed control at 500 g/ha for CC(NC(=O)c1cc(OC(F)(F)F)cc(C2CC2)c1)c1nc(Cl)nn1-c1ccc(C#N)cn1 (centres unmarked) [I-85] ; test system: Rhipicephalus microplus larvae (strain Parkhurst, resistant against synthetic pyrethroids).
Reply: 90

Task item: Determine reported pest or weed control at 500 g/ha for CC(C)c1nc([C@H](C)NC(=O)c2cc(Cl)cc(S(=O)(=O)C3CC3)c2)n(-c2ccc(C#N)cn2)n1 [I-18] ; test system: Rhipicephalus microplus larvae (strain Parkhurst, resistant against synthetic pyrethroids).
Reply: 90

Task item: Determine reported pest or weed control at 500 g/ha for C[C@H](NC(=O)c1csc(Cl)c1)c1ncnn1-c1ncccn1 [II-30] ; test system: Rhipicephalus microplus larvae (strain Parkhurst, resistant against synthetic pyrethroids).
Reply: 100

Task item: Determine reported pest or weed control at 500 g/ha for CC(C)S(=O)(=O)c1cc(Cl)cc(C(=O)N[C@@H](C)c2nc(C3CC3)nn2-c2ccc(C#N)cn2)c1 [I-14] ; test system: Rhipicephalus microplus larvae (strain Parkhurst, resistant against synthetic pyrethroids).
Reply: 100

Task item: Determine reported pest or weed control at 500 g/ha for CC(C)c1nc([C@H](C)NC(=O)c2cc(OC(F)(F)F)cc(C3CC3)c2)n(-c2ccc(C#N)cn2)n1 [I-23] ; test system: Rhipicephalus microplus larvae (strain Parkhurst, resistant against synthetic pyrethroids).
Reply: 100

Task item: Determine reported pest or weed control at 500 g/ha for C[C@H](NC(=O)c1cc(Cl)cc(S(=O)(=O)C(F)F)c1)c1ncnn1-c1ncccn1 [II-34] ; test system: Rhipicephalus microplus larvae (strain Parkhurst, resistant against synthetic pyrethroids).
Reply: 90

Task item: Determine reported pest or weed control at 500 g/ha for C[C@H](NC(=O)c1cc(OC(F)(F)F)cc(C2CC2)c1)c1ncnn1-c1ccccn1 [II-22] ; test system: Rhipicephalus microplus larvae (strain Parkhurst, resistant against synthetic pyrethroids).
Reply: 100

Task item: Determine reported pest or weed control at 500 g/ha for C[C@H](NC(=O)c1cc(C(F)F)cc(S(C)(=O)=O)c1)c1nc(C2CC2)nn1-c1ccc(Cl)cn1 [I-57] ; test system: Rhipicephalus microplus larvae (strain Parkhurst, resistant against synthetic pyrethroids).
Reply: 100

Task item: Determine reported pest or weed control at 500 g/ha for Cc1nc([C@H](C)NC(=O)c2cc(Cl)cc(S(=O)(=O)C(F)(F)F)c2)n(-c2ccc(C#N)cn2)n1 [II-15] ; test system: Rhipicephalus microplus larvae (strain Parkhurst, resistant against synthetic pyrethroids).
Reply: 100

====

# System: Rhipicephalus microplus larvae (strain Parkhurst, resistant against synthetic pyrethroids)
# Test Details: Rhipicephalus (Boophilus) microplus in-vitro contact test, larval cattle tick
# Assay type: in vivo
# Condition Details: application rate 5 pg/cm^2 (=500 g/ha), after 48 hours, read-out: activity (efficacy: larvae dead or moribund)
Measured Parameter: pest or weed control at 500 g/ha (%)
Please respond with the number in % and leave the unit unwritten.

These recorded examples may help you get a feel for the data.
C[C@H](NC(=O)c1cc(Cl)cc(S(C)(=O)=O)c1)c1ncnn1-c1ncc(OC(F)F)cn1; 100
CC(NC(=O)c1cc(Cl)cc(S(C)(=O)=O)c1)c1nc(C(F)F)nn1-c1ccc(C#N)cn1 (stereo not shown); 100
C[C@H](NC(=O)c1cc(C2CC2)cc(S(C)(=O)=O)c1)c1nc(C2CC2)nn1-c1ccc(C#N)cn1; 100
CC(NC(=O)c1cc(C(F)(F)F)n(C)n1)c1nc(I)nn1-c1ncccn1 (stereo not shown); 100
C[C@H](NC(=O)c1cc(C(F)(F)F)cc(S(=O)(=O)C2CC2)c1)c1ncnn1-c1ccc(C#N)cn1; 100

Okay, now this molecule:
Task item: Please look at this molecule and report its pest or weed control at 500 g/ha: CCOc1nc([C@H](C)NC(=O)c2cc(Cl)cc(S(C)(=O)=O)c2)n(-c2ccc(C#N)cn2)n1
Reply: 100

====

# System: adult brown dog ticks (Rhipicephalus sanguineus)
# Test Details: Rhipicephalus sanguineus in-vitro contact test, adult brown dog ticks
# Type: in vivo
# Condition Details: application rate 5 μg/cm^2 (=500 g/ha), after 48 hours, read-out: activity (efficacy: ticks dead or moribund)
Measured Parameter: pest or weed control at 5 µg/cm2, 500 g/ha
Your answer should be a number followed by the unit of measure.

C[C@H](NC(=O)c1cc(C(F)(F)F)cc(C2(C#N)CC2)c1)c1ncnn1-c1ccc(C#N)cn1; 100%

Task item: Please look at this compound and report its pest or weed control at 5 µg/cm2, 500 g/ha: Cc1nc([C@H](C)NC(=O)c2cc(C)n(C)n2)n(-c2ccc(C#N)cn2)n1
Reply: 100%

Task item: Please look at this compound and report its pest or weed control at 5 µg/cm2, 500 g/ha: COc1nc([C@H](C)NC(=O)c2cc(OC(F)(F)F)cc(C3CC3)c2)n(-c2ccc(C#N)cn2)n1
Reply: 100%

Task item: Please look at this compound and report its pest or weed control at 5 µg/cm2, 500 g/ha: C[C@H](NC(=O)c1cc(C(F)(F)F)cc(S(=O)(=O)C2CC2)c1)c1ncnn1-c1ccc(Cl)cn1
Reply: 80%
